Just for reference, ChEMBL document CHEMBL1139072 is where these values come from.

# log10 IC50 listing for each entry below
# TARGET: Disintegrin and metalloproteinase domain-containing protein 17 (Sus scrofa)
# Sequence (O77636 whole entry, the tested form may be a part): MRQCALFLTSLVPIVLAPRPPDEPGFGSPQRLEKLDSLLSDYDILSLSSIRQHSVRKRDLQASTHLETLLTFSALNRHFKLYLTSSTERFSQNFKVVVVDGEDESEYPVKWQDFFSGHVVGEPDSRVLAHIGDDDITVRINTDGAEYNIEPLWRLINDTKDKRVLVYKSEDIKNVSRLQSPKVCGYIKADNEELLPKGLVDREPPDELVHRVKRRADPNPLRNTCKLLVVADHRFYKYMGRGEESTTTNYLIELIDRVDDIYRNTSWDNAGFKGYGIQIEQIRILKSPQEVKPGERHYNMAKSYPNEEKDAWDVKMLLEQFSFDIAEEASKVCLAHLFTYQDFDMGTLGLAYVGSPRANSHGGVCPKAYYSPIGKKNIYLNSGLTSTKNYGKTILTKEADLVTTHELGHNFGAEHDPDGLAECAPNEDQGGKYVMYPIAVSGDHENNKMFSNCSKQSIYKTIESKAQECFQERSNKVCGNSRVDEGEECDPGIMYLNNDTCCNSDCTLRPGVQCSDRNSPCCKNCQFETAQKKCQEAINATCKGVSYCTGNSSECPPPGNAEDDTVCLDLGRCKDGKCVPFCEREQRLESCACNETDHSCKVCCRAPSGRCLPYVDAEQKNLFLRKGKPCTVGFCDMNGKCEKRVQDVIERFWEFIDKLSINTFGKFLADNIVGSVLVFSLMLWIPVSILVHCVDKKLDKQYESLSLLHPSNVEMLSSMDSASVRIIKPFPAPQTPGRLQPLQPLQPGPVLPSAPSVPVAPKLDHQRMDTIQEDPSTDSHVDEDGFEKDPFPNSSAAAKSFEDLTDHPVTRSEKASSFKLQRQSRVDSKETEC
# ASSAY_PROCEDURE: Inhibition of porcine TACE
Parameter value (number): base-10 log of IC50 in nM.

Solved cases (5 shown):
[
  {
    "MOLECULE": "Cc1cc(COc2ccc(C3(N4CCN(C)CC4)C(=O)NC(=O)NC3=O)cc2)c2ccccc2n1",
    "log10 IC50": 1.96
  },
  {
    "MOLECULE": "Cc1cc(COc2ccc(NC(=O)C[C@@H]3CCC[C@]34NC(=O)NC4=O)cc2)c2ccccc2n1",
    "log10 IC50": 3.87
  },
  {
    "MOLECULE": "Cc1cc(COc2ccc(NC(=O)[C@@H]3CCC[C@]34NC(=O)NC4=O)cc2)c2ccccc2n1",
    "log10 IC50": 1.81
  },
  {
    "MOLECULE": "Cc1cc(COc2ccc(NC(=O)C[C@@H]3CCC[C@@]34NC(=O)NC4=O)cc2)c2ccccc2n1",
    "log10 IC50": 1.04
  },
  {
    "MOLECULE": "Cc1cc(COc2ccc(NC(=O)[C@H]3CCC[C@]34NC(=O)NC4=O)cc2)c2ccccc2n1",
    "log10 IC50": 2.36
  }
]

Give log10 IC50 for Cc1cc(COc2ccc(C(=O)NCC3NC(=O)NC3=O)cc2)c2ccccc2n1 (stereo unspecified)
1.99

Read the entry Cc1cc(COc2ccc(C(=O)N[C@@H]3CNC[C@]34NC(=O)NC4=O)cc2)c2ccccc2n1 and write its reported log10 IC50.
2.95

State its log10 IC50 for this molecule: Cc1cc(COc2ccc(C(=O)N[C@H]3CNC[C@@]34NC(=O)NC4=O)cc2)c2ccccc2n1
1.40
